From: ChEMBL document CHEMBL3885861

Species on record: Rattus norvegicus
Assay: Open TG-GATES - Regimen: Single
Format: toxicity, organism-based, Sprague-Dawley
Parameters: regimen Single, gender Male, age 6 weeks
Conditions: in vivo, po, 10 mg/kg, 9 h, tissue Blood, route gavage, dose level Low
Consider the following compounds and their measured MCV readings.
reported metric: MCV (fL)

[[record]]
compound = "CN(C)CCCN1c2ccccc2CCc2ccccc21 [IMIPRAMINE]"
u = "fL"
numeric_readout = 64.4

[[record]]
compound = "CC1=C(/C=C/C(C)=C/C=C/C(C)=C/CO)C(C)(C)CCC1 [RETINOL]"
u = "fL"
numeric_readout = 62.9

[[record]]
compound = "CN(C)CCN(Cc1cccs1)c1ccccn1"
u = "fL"
numeric_readout = 62.5

[[record]]
compound = "CN(C)CCCN1c2ccccc2CCc2ccc(Cl)cc21 [CLOMIPRAMINE]"
u = "fL"
numeric_readout = 64.8


###

Below, each of the compounds is paired with its reported Fbg value.
Species on record: Rattus norvegicus
Assay: Open TG-GATES - Regimen: Single
Assay type: toxicity, organism-based, Sprague-Dawley
Set-up: regimen Single, gender Male, age 6 weeks
Details: in vivo, po, 300 mg/kg, 6 h, tissue Blood, route gavage, dose level Middle
reported metric: Fbg (mg/dL)

[[record]]
compound = "NC(N)=Nc1nc(CSCCC(N)=NS(N)(=O)=O)cs1"
u = "mg/dL"
numeric_readout = 204.6

[[record]]
compound = "CCOC(=O)CCC(=O)O[C@H]1[C@H](O[C@@H]2[C@@H](C)[C@H](O[C@H]3C[C@@](C)(OC)[C@@H](O)[C@H](C)O3)[C@@H](C)C(=O)O[C@H](CC)[C@@](C)(O)[C@H](O)[C@@H](C)C(=O)[C@H](C)C[C@@]2(C)O)O[C@H](C)C[C@@H]1N(C)C [ERYTHROMYCIN ETHYLSUCCINATE]"
u = "mg/dL"
numeric_readout = 318.4

[[record]]
compound = "COc1ccc2[nH]c([S+]([O-])Cc3ncc(C)c(OC)c3C)nc2c1 (centres undefined)"
u = "mg/dL"
numeric_readout = 216.4

[[record]]
compound = "COC1=CC(=O)C[C@@H](C)[C@]12Oc1c(Cl)c(OC)cc(OC)c1C2=O"
u = "mg/dL"
numeric_readout = 220.2


###

Organism: Rattus norvegicus
Experiment: Open TG-GATES - Regimen: Single
Assay type: toxicity, organism-based, Sprague-Dawley
Design: regimen Single, gender Male, age 6 weeks
Details: in vivo, po, 0 mg/kg, 3 h, tissue Blood, route gavage, dose level Control
reported metric: WBC

[[record]]
molecule = "CN(C)CCCN1c2ccccc2CCc2ccccc21"
result = "81.7 x10_2/uL"

[[record]]
molecule = "NNC(=O)c1ccncc1"
result = "82.1 x10_2/uL"

[[record]]
molecule = "CN(C)CCN(Cc1cccs1)c1ccccn1"
result = "76.5 x10_2/uL"

[[record]]
molecule = "COC1=CC(=O)C[C@@H](C)[C@]12Oc1c(Cl)c(OC)cc(OC)c1C2=O"
result = "103.5 x10_2/uL"

[[record]]
molecule = "O=C(CCCN1CCC(O)(c2ccc(Cl)cc2)CC1)c1ccc(F)cc1"
result = "114.5 x10_2/uL"

[[record]]
molecule = "CCCNC(=O)NS(=O)(=O)c1ccc(Cl)cc1 [CHLORPROPAMIDE]"
result = "85.4 x10_2/uL"

[[record]]
molecule = "CCOc1ccc(NC(=O)CC(C)O)cc1 (stereo unspecified)"
result = "84.1 x10_2/uL"

[[record]]
molecule = "NC(N)=Nc1nc(CSCCC(N)=NS(N)(=O)=O)cs1"
result = "81.2 x10_2/uL"

[[record]]
molecule = "CC1=C(/C=C/C(C)=C/C=C/C(C)=C/CO)C(C)(C)CCC1"
result = "97.5 x10_2/uL"

[[record]]
molecule = "COc1cc2c(c(OC)c1OC)-c1ccc(OC)c(=O)cc1[C@@H](NC(C)=O)CC2"
result = "89.6 x10_2/uL"

[[record]]
molecule = "CN(C)CCCN1c2ccccc2CCc2ccc(Cl)cc21"
result = "86.3 x10_2/uL"

[[record]]
molecule = "C[C@@H]1C[C@H]2[C@@H]3CCC4=CC(=O)C=C[C@]4(C)[C@@]3(F)[C@@H](O)C[C@]2(C)[C@@]1(O)C(=O)CO"
result = "98.2 x10_2/uL"

[[record]]
molecule = "CN1C(=O)CN=C(c2ccccc2)c2cc(Cl)ccc21"
result = "109.8 x10_2/uL"

[[record]]
molecule = "CC/C(=C(\\c1ccccc1)c1ccc(OCCN(C)C)cc1)c1ccccc1"
result = "87.4 x10_2/uL"

[[record]]
molecule = "Cc1ccc(C)c(OCCCC(C)(C)C(=O)O)c1"
result = "76.9 x10_2/uL"

[[record]]
molecule = "CCOC(=O)CCC(=O)O[C@H]1[C@H](O[C@@H]2[C@@H](C)[C@H](O[C@H]3C[C@@](C)(OC)[C@@H](O)[C@H](C)O3)[C@@H](C)C(=O)O[C@H](CC)[C@@](C)(O)[C@H](O)[C@@H](C)C(=O)[C@H](C)C[C@@]2(C)O)O[C@H](C)C[C@@H]1N(C)C [ERYTHROMYCIN ETHYLSUCCINATE]"
result = "75.2 x10_2/uL"

